biological target: kinases (Homo sapiens, UniProt P00533, G719C); construct: purchased Eurofins/DiscoveRx; host or cells: E. coli BL21-derived host (T7 phage display) for most kinases; HEK-293 for the rest; test: KINOMEscan kinase binding assay (Eurofins/DiscoveRx), % Ctrl; details: target EGFR(G719C); 1 μM
EXPERIMENTAL ENDPOINT: % Ctrl, EGFR(G719C) (% Ctrl)

{"COMPOUND": "Cc1cc2c([nH]1)/C=C1\\C(=O)Nc3ccc(cc31)-c1c(C)nn(C)c1COCCN(C)C2=O [Ex. 146]", "SYSTEM TESTED": "kinases (Homo sapiens, UniProt P00533, G719C)", "REPORTED": 89}
{"COMPOUND": "Cc1cc2c([nH]1)/C=C1\\C(=O)Nc3cc(Cl)c(cc31)OCCO[C@@H](C(=O)N1CCN(C)CC1)CN(C)C2=O [Ex. 138]", "SYSTEM TESTED": "kinases (Homo sapiens, UniProt P00533, G719C)", "REPORTED": 100}
{"COMPOUND": "Cc1cc2c([nH]1)/C=C1\\C(=O)Nc3ccc(cc31)-c1c(noc1C)CNCCN(C)C2=O [Ex. 139]", "SYSTEM TESTED": "kinases (Homo sapiens, UniProt P00533, G719C)", "REPORTED": 82}

----------
We begin with a simple list: items and their reported % Ctrl, FLT3(ITD, D835V).
tested on: kinases; assay: KINOMEscan kinase binding assay (Eurofins/DiscoveRx), % Ctrl; conditions: 1 μM; FLT3(ITD, D835V)

{"MOLECULAR STRING": "Cc1cc2c([nH]1)/C=C1\\C(=O)Nc3ccc(cc31)-c1ccnn1CCOCCNC2=O", "% Ctrl, FLT3(ITD, D835V)": "17 % Ctrl"}
{"MOLECULAR STRING": "Cc1cc2c([nH]1)/C=C1\\C(=O)Nc3ccc(cc31)-c1cnn(C)c1CN(C)CCN(C)C2=O", "% Ctrl, FLT3(ITD, D835V)": "0 % Ctrl"}
{"MOLECULAR STRING": "Cc1cc2c([nH]1)/C=C1\\C(=O)Nc3ccc(cc31)-c1c(noc1C)COCCN(C)C2=O", "% Ctrl, FLT3(ITD, D835V)": "5.8 % Ctrl"}
{"MOLECULAR STRING": "Cc1cc2c([nH]1)/C=C1\\C(=O)Nc3ccc(nc31)-c1ccccc1OCCCNC2=O", "% Ctrl, FLT3(ITD, D835V)": "71 % Ctrl"}
{"MOLECULAR STRING": "Cc1cc2c([nH]1)/C=C1\\C(=O)Nc3ccc(cc31)-c1ccnn1CCNCCNC2=O", "% Ctrl, FLT3(ITD, D835V)": "38 % Ctrl"}
{"MOLECULAR STRING": "CNC(=O)[C@H]1CN(C)C(=O)c2cc(C)[nH]c2/C=C2\\C(=O)Nc3cc(Cl)c(cc32)OCCO1", "% Ctrl, FLT3(ITD, D835V)": "11 % Ctrl"}
{"MOLECULAR STRING": "Cc1cc2c([nH]1)/C=C1\\C(=O)Nc3ccc(cc31)-c1cnn(C)c1CNCCN(C)C2=O", "% Ctrl, FLT3(ITD, D835V)": "0 % Ctrl"}
{"MOLECULAR STRING": "Cc1cc2c([nH]1)/C=C1\\C(=O)Nc3cnc(nc31)N(C)CCCOCCN(C)C2=O", "% Ctrl, FLT3(ITD, D835V)": "100 % Ctrl"}
{"MOLECULAR STRING": "Cc1cc2c([nH]1)/C=C1\\C(=O)Nc3ccc(cc31)OCCOCCN(C)C2=O", "% Ctrl, FLT3(ITD, D835V)": "0 % Ctrl"}
{"MOLECULAR STRING": "Cc1cc2c([nH]1)/C=C1\\C(=O)Nc3cc(Cl)c(cc31)OCCO[C@@H](C(=O)N(C)C)CN(C)C2=O", "% Ctrl, FLT3(ITD, D835V)": "9.1 % Ctrl"}
{"MOLECULAR STRING": "Cc1cc2c([nH]1)/C=C1\\C(=O)Nc3cc(Cl)c(cc31)OCCO[C@@H](C(=O)NC1CCNCC1)CN(C)C2=O", "% Ctrl, FLT3(ITD, D835V)": "3.2 % Ctrl"}
{"MOLECULAR STRING": "Cc1cc2c([nH]1)/C=C1\\C(=O)Nc3cnc(cc31)-c1cnn(C)c1COCCNC2=O", "% Ctrl, FLT3(ITD, D835V)": "100 % Ctrl"}
{"MOLECULAR STRING": "Cc1cc2c([nH]1)/C=C1\\C(=O)Nc3ccc(cc31)OCCOCCNC2=O", "% Ctrl, FLT3(ITD, D835V)": "4.3 % Ctrl"}

----------
We begin with a simple list: items and their reported % Ctrl, KIT.
molecular target: kinases (Homo sapiens); construct: purchased Eurofins/DiscoveRx; host or cells: E. coli BL21-derived host (T7 phage display) for most kinases; HEK-293 for the rest; test: KINOMEscan kinase binding assay (Eurofins/DiscoveRx), % Ctrl; conditions: 1 μM; KIT
EXPERIMENTAL ENDPOINT: % Ctrl, KIT (% Ctrl)

{"MOLECULAR STRING": "Cc1cc2c([nH]1)/C=C1\\C(=O)Nc3ccc(cc31)-c1cnn(C)c1CNCCN(C)C2=O", "SYSTEM TESTED": "kinases (Homo sapiens)", "EXPERIMENTAL ENDPOINT": "% Ctrl, KIT", "UNIT SYMBOL": "% Ctrl", "REPORTED": 42}
{"MOLECULAR STRING": "Cc1cc2c([nH]1)/C=C1\\C(=O)Nc3ccc(cc31)CN(C)C(=O)COCCNC2=O", "SYSTEM TESTED": "kinases (Homo sapiens)", "EXPERIMENTAL ENDPOINT": "% Ctrl, KIT", "UNIT SYMBOL": "% Ctrl", "REPORTED": 99}
{"MOLECULAR STRING": "Cc1cc2c([nH]1)/C=C1\\C(=O)Nc3ccc(cc31)-c1cnn(C)c1COCCN(C)C2=O", "SYSTEM TESTED": "kinases (Homo sapiens)", "EXPERIMENTAL ENDPOINT": "% Ctrl, KIT", "UNIT SYMBOL": "% Ctrl", "REPORTED": 45}
{"MOLECULAR STRING": "Cc1cc2c([nH]1)/C=C1\\C(=O)Nc3ccc(cc31)OCCOCCNC2=O", "SYSTEM TESTED": "kinases (Homo sapiens)", "EXPERIMENTAL ENDPOINT": "% Ctrl, KIT", "UNIT SYMBOL": "% Ctrl", "REPORTED": 100}
{"MOLECULAR STRING": "Cc1cc2c([nH]1)/C=C1\\C(=O)Nc3ccc(cc31)O[C@@H](C)COCCN(C)C2=O", "SYSTEM TESTED": "kinases (Homo sapiens)", "EXPERIMENTAL ENDPOINT": "% Ctrl, KIT", "UNIT SYMBOL": "% Ctrl", "REPORTED": 91}
{"MOLECULAR STRING": "Cc1cc2c([nH]1)/C=C1\\C(=O)Nc3cnc(nc31)N(C)CCCOCCN(C)C2=O", "SYSTEM TESTED": "kinases (Homo sapiens)", "EXPERIMENTAL ENDPOINT": "% Ctrl, KIT", "UNIT SYMBOL": "% Ctrl", "REPORTED": 100}
{"MOLECULAR STRING": "Cc1cc2c([nH]1)/C=C1\\C(=O)Nc3cc(Cl)c(cc31)OCCO[C@@H](C(=O)NC1CCNCC1)CN(C)C2=O", "SYSTEM TESTED": "kinases (Homo sapiens)", "EXPERIMENTAL ENDPOINT": "% Ctrl, KIT", "UNIT SYMBOL": "% Ctrl", "REPORTED": 60}

----------
We begin with a simple list: items and their reported % Ctrl, ABL1(T315I)-nonphosphorylated.
target: kinases (Homo sapiens, UniProt P00519, T315I); construct: purchased Eurofins/DiscoveRx; host or cells: E. coli BL21-derived host (T7 phage display) for most kinases; HEK-293 for the rest; test: KINOMEscan kinase binding assay (Eurofins/DiscoveRx), % Ctrl; settings: 1 μM; ABL1(T315I)-nonphosphorylated

{"MOLECULAR STRING": "Cc1cc2c([nH]1)/C=C1\\C(=O)Nc3ccc(cc31)OCCOCCNC2=O", "% Ctrl, ABL1(T315I)-nonphosphorylated [% Ctrl]": 92}
{"MOLECULAR STRING": "Cc1cc2c([nH]1)/C=C1\\C(=O)Nc3ccc(nc31)-c1ccccc1OCCCNC2=O", "% Ctrl, ABL1(T315I)-nonphosphorylated [% Ctrl]": 97}
{"MOLECULAR STRING": "Cc1cc2c([nH]1)/C=C1\\C(=O)Nc3cnc(nc31)N(C)CCCOCCN(C)C2=O", "% Ctrl, ABL1(T315I)-nonphosphorylated [% Ctrl]": 100}
{"MOLECULAR STRING": "Cc1cc2c([nH]1)/C=C1\\C(=O)Nc3cnc(cc31)-c1cnn(C)c1COCCNC2=O", "% Ctrl, ABL1(T315I)-nonphosphorylated [% Ctrl]": 100}
